# Test system: PC3 (prostate adenocarcinoma cell line)
# Assay Protocol: MTT cytotoxicity assay, PC3 cells
# Assay type: cell-based
# Recorded Conditions: Homo sapiens, PC-3, 48 h incubation, mean ± SD, triplicate
# Experimental: […] The cytotoxic effect on cells was determined by the colorimetric method of cell proliferation—MTT test. […] The optical density was recorded at 540 nm on an Invitrologic microplate reader (Novosibirsk, Russia). […]
Catalogue of molecules with associated IC50
// units = µM; emit number, no label

Solved cases below.
- Molecule: "CCOC(=O)C1=C(C)N=c2s/c(=C\\c3cccc(OC)c3O)c(=O)n2C1c1ccc(Br)cc1 (stereo not shown)"
  Scale Unit: "µM"
  IC50: 100
- Molecule: "CNC(=O)c1cc(Oc2ccc(NC(=O)Nc3ccc(Cl)c(C(F)(F)F)c3)cc2)ccn1 [Sorafenib, reference compound]"
  Scale Unit: "µM"
  IC50: 12.7
- Molecule: "COc1cccc(/C=c2\\sc3n(c2=O)C(c2ccc(C)cc2)C(C(C)=O)=C(C)N=3)c1O (stereo not shown)"
  Scale Unit: "µM"
  IC50: 57.4

Proceed to the following item.
IN: Entry CCOC(=O)C1=C(C)N=c2s/c(=C\c3cccc(OC)c3O)c(=O)n2C1c1ccccc1OC (stereo not shown) has what IC50?
OUT: 54.1

Origin of values: paper PMC9917025
